Listing of recorded concentration at 1 h by entry.
assay text: in vivo
recorded conditions: zebrafish, in vivo, Trunk concentration, 10 d.p.f.; immersion 1 hour
reported metric: concentration at 1 h

> print(dat)
                                   molecule       reported.metric  value.observed
1  O=C(CCCN1CCC(O)(c2ccc(Cl)cc2)CC1)c1ccc(F)cc1 [Haloperidol]  concentration at 1 h     101000 ng/g
2  CN(C)CCOC(c1ccccc1)c1ccccc1 [Diphenhydramine]  concentration at 1 h      54800 ng/g

====

assay text: in vivo
recorded conditions: zebrafish, in vivo, Head concentration, 10 d.p.f.; immersion 1 hour
Description: Initial drug exposure assays were performed in larval zebrafish to identify a sufficiently high concentration of drug that could be detected by liquid chromatography/tandem mass spectrometry (LC/MS/MS) analysis without causing toxicity. Maximum tolerated concentration (MTC) was determined using n=6 larvae per group. […] The weight of the tissue sample was measured and the samples were frozen at -20 °C prior to extraction for LC/MS/MS. […]
reported metric: concentration at 1 h (ng/g)

> print(dat)
                                   molecule       reported.metric  value.observed
1  CN(C)CCOC(c1ccccc1)c1ccccc1 [Diphenhydramine]  concentration at 1 h           52800
2  O=C(CCCN1CCC(O)(c2ccc(Cl)cc2)CC1)c1ccc(F)cc1 [Haloperidol]  concentration at 1 h          113000
